Target: NDH-2 (type II NADH:quinone oxidoreductase) (Caldalkalibacillus thermarum)
Sequence (F5L3B8 1-399): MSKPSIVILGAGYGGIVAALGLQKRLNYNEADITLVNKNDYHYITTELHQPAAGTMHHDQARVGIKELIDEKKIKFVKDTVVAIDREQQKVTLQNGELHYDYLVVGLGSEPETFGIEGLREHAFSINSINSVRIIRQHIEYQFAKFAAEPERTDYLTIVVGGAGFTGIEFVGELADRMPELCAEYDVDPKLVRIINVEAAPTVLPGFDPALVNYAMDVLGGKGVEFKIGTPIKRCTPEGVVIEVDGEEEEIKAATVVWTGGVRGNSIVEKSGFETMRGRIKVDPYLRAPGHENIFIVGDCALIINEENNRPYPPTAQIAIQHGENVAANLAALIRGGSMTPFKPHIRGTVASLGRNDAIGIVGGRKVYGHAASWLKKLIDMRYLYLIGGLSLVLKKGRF
pKd: −log10 of the molar value.
property.measured: pKd

[in] What value of pKd has been reported for the following compound? `NC(=O)c1ccc[n+]([C@@H]2O[C@H](COP(=O)([O-])OP(=O)(O)OC[C@H]3O[C@@H](n4cnc5c(N)ncnc54)[C@H](O)[C@@H]3O)[C@@H](O)[C@H]2O)c1`
[out] > 5.70
